Measured pKi on SIK3 (Homo sapiens, UniProt Q9Y2K2) follows.
Sequence (Q9Y2K2 whole entry): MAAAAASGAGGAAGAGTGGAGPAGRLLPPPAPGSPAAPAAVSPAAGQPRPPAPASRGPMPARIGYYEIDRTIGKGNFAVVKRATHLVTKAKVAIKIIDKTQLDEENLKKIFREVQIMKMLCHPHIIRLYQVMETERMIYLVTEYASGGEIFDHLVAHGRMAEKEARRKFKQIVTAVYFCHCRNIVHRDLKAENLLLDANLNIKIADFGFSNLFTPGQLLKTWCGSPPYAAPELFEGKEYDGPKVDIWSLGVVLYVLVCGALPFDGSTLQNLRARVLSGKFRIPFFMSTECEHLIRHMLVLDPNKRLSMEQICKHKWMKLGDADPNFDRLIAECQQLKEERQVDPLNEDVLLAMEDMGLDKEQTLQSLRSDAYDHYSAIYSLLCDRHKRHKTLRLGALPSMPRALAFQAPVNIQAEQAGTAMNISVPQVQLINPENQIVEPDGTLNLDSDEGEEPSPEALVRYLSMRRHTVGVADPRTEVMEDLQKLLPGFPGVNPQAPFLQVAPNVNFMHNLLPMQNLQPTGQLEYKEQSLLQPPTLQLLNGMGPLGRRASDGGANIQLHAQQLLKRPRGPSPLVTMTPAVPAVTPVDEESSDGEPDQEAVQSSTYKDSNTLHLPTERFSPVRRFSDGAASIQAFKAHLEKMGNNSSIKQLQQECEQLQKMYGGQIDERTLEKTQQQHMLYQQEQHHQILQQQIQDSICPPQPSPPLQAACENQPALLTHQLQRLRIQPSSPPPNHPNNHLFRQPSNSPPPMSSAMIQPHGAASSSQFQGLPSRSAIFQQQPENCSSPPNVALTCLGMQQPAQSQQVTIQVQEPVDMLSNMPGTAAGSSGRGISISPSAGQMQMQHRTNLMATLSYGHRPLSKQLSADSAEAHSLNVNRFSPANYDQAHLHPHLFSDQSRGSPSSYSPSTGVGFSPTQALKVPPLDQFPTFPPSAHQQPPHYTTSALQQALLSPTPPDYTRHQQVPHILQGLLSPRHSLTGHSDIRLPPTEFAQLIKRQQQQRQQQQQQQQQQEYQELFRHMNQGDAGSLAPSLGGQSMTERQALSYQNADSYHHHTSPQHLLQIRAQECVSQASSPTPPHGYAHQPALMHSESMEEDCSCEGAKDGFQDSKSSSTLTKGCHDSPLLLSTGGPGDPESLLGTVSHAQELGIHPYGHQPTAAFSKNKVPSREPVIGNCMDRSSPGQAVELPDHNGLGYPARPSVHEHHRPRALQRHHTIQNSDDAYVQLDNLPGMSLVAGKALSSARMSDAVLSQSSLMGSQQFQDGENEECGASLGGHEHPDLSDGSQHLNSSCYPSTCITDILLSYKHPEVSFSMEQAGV
Numbers only, as −log10 of the molar value.

Illustrative cases are given below, each with its answer.
1) Cc1cccc(F)c1-c1cc(N[C@@H]2CCCCN(C)C2)c2cc(N)ncc2c1 = 8.31
2) CNc1cc2c(NC3CCNCC3)cc(-c3c(C)cccc3F)cc2cn1 = 9.46

Next item in the queue.
Data request: Note down pKi recorded for CNc1cc2c(N3CCC[C@H](N(C)C)C3)cc(-c3c(C)cccc3F)cc2cn1
Data returned: 8.13

---

Measured Ki on SIK3 (Homo sapiens, UniProt Q9Y2K2) follows.
One number for each entry, in nM.

1. Cc1cccc(F)c1-c1cc(OC2CCNCC2)c2cc(N)ncc2c1 [Example 46] = 0.125

I would be grateful if you could provide Ki for each of the following entries.
1. CC(=O)Nc1cc2c(NC3CCN(C)CC3)cc(-c3c(C)cccc3F)cc2cn1 [Example 115]
2. Cc1cccc(F)c1-c1cc(N2CCC[C@@H](O)C2)c2cc(N)ncc2c1 [Example 108]
3. Cc1cccc(F)c1-c1cc(NC2CCNCC2)c2c(C#N)c(N)ncc2c1 [Example 133]
4. Cc1cccc(F)c1-c1cc(C(=O)NC2CCN(C)CC2)c2cc(N)ncc2c1 [Example 116]
5. CNC[C@H]1CCCN(c2cc(-c3c(C)cccc3F)cc3cnc(N)cc23)C1 [Example 21]
6. Cc1cccc(F)c1-c1cc(N2CC[C@@H](N(C)C)C2)c2cc(N)ncc2c1 [Example 58]
7. Cc1cccc(Cl)c1-c1ccc2c(C(=O)N[C@@H]3CCNC3)c(N)ncc2c1 [Example 42]

Data returned:
[0.301, 130, 0.271, 13.8, 9.36, 8.64, 100]

I would be grateful if you could provide Ki for each of the following entries.
1. Cc1cccc(F)c1-c1cc(NC2CCN(C)CC2)c2ccncc2c1 [Example 103]
2. Cc1cccc(F)c1-c1cc2cnc(N)cc2c(NC2CCN(C)CC2)c1F [Example 135]
3. Cc1cccc(F)c1-c1cc(C2CCN(C)CC2)c2cc(N)ncc2c1 [Example 117]

Data returned:
1. 5.01
2. 0.312
3. 0.473

I would be grateful if you could provide Ki for each of the following entries.
1. CC(=O)N[C@H]1CCN(c2cc(-c3c(C)cccc3F)cc3cnc(N)cc23)C1 [Example 112]
2. Cc1cccc(F)c1-c1cc(N[C@H]2CCNC2)c2cc(N)ncc2c1 [Example 7]
3. Cc1cccc(F)c1-c1cc(N[C@H]2CCCN(C)C2)c2cc(N)ncc2c1 [Example 86]
4. CN[C@@H]1CCN(c2cc(-c3c(C)cccc3F)cc3cnc(N)cc23)C1 [Example 24]
5. Cc1cccc(Cl)c1-c1cc(NC2CCN(C)CC2)c2ccncc2c1 [Example 66]

Data returned:
[431, 0.325, 1.98, 7.5, 1.15]

---

Measured pKi on EPHA2 (Homo sapiens, UniProt P29317) follows.
Sequence (P29317 24-976): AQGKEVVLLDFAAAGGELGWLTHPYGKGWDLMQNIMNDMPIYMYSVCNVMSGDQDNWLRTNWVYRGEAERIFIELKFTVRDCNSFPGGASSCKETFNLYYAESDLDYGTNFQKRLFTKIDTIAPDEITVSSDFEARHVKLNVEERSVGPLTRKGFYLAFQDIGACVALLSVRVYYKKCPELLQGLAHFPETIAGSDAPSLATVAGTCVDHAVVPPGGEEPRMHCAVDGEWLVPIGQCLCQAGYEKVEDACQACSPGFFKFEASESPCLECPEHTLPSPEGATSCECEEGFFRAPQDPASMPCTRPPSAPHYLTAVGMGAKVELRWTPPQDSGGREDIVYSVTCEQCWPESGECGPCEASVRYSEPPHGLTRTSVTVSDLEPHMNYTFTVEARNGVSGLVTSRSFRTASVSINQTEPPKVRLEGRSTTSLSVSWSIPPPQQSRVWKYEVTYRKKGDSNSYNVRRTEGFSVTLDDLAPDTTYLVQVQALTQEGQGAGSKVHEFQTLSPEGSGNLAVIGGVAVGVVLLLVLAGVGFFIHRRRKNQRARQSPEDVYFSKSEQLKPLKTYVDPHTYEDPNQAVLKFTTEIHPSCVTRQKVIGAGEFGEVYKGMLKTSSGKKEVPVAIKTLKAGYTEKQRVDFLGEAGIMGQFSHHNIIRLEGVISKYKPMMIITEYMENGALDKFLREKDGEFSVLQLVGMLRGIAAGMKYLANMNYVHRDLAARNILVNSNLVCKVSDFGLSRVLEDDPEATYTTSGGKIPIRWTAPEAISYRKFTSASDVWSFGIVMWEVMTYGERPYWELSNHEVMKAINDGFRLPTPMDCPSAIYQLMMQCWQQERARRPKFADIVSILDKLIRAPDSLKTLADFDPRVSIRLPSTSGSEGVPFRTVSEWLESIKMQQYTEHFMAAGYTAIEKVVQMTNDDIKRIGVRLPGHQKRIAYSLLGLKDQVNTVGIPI
Answers are plain numbers, as −log10 of the molar value.

Illustrative cases are given below, each with its answer.
1) Cc1cccc(F)c1-c1cc(NCC2CNC2)c2cc(N)ncc2c1 = 7.02
2) CN[C@@H]1CCN(c2cc(-c3c(C)cccc3F)cc3cnc(N)cc23)C1 = 6.83
3) Cc1cccc(F)c1-c1cc(N2CC(N(C)C)C2)c2cc(N)ncc2c1 = 7.08

Next item in the queue.
Data request: Note down pKi recorded for CN[C@H]1CCCN(c2cc(-c3c(C)cccc3F)cc3cnc(N)cc23)C1
Data returned: 7.00

---

Measured pKi on SIK1 (Homo sapiens, UniProt P57059) follows.
Sequence (P57059 whole entry): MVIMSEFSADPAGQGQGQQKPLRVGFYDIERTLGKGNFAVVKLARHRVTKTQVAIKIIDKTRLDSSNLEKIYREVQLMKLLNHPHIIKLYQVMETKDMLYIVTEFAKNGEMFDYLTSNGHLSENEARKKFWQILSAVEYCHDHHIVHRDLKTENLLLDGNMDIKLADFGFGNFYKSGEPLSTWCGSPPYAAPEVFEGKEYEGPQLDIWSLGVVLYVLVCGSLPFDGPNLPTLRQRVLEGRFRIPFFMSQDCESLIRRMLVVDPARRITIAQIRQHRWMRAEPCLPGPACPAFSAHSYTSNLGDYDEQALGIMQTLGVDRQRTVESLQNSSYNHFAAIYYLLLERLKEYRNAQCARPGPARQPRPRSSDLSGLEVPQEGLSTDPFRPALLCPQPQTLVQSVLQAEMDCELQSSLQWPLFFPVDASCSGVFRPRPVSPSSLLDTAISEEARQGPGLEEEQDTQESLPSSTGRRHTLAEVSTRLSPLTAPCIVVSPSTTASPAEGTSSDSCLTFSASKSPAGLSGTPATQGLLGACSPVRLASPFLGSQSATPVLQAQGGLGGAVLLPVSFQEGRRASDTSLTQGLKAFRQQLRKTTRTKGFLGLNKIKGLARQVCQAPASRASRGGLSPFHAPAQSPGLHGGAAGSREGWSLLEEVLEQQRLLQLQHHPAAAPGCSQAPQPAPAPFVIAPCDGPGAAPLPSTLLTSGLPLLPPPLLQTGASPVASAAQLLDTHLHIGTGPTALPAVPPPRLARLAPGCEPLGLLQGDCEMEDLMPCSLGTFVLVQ
One number for each entry, as −log10 of the molar value.

1. Cc1cccc(F)c1-c1cc(NC2CCNCC2)c2c(C#N)c(N)ncc2c1 [Example 133] = 9.46

I would be grateful if you could provide pKi for each of the following entries.
1. CC(=O)N[C@@H]1CCN(c2cc(-c3c(C)cccc3F)cc3cnc(N)cc23)C1 [Example 113]
2. Cc1cccc(F)c1-c1cc2cnc(N)cc2c(NC2CCN(C)CC2)c1F [Example 135]

Data returned:
1: 7.13; 2: 9.44

---

Biological target: Abl (Homo sapiens, UniProt P00519)
Sequence (P00519 whole entry): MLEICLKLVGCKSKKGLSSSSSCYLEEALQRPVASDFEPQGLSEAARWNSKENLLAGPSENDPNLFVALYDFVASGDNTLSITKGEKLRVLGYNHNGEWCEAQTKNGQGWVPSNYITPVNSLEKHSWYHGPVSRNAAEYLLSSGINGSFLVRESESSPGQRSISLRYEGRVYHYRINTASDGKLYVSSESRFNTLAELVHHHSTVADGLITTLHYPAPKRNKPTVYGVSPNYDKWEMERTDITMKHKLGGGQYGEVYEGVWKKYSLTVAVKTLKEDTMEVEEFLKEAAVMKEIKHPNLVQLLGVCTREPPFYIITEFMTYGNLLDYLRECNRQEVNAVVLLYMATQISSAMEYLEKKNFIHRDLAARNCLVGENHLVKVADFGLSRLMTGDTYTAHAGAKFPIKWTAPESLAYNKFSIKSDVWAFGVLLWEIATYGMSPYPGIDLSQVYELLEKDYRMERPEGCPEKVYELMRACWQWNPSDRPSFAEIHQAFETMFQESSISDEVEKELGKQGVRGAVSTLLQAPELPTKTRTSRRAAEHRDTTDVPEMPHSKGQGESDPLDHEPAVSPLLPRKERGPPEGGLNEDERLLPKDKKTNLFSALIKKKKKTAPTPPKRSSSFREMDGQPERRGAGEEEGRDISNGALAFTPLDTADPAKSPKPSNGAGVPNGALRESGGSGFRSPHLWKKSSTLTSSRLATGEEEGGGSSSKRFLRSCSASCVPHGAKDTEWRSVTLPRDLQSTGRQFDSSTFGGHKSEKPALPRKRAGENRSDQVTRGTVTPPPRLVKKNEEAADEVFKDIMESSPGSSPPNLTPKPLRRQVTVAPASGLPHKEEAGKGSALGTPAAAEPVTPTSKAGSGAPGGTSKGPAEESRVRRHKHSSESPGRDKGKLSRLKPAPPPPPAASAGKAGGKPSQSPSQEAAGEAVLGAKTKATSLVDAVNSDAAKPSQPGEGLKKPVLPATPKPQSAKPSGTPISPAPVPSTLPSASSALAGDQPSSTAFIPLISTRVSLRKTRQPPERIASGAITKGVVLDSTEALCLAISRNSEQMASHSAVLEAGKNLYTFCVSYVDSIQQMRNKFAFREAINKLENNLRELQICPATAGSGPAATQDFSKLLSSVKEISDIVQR
measure: Ki

Illustrative cases are given below, each with its answer.
1. Cc1cccc(F)c1-c1cc(NC2CCN(C)CC2)c2ncncc2c1 = > 1 µM
2. Cc1cccc(F)c1-c1cc(NC2CCN(C)CC2)c2cc(N)ncc2n1 = > 10 µM

Next item in the queue.
Data request: Note down Ki recorded for Cc1cccc(F)c1-c1cc(NC2CCN(C)CC2)c2ccncc2n1
Data returned: > 10 µM

Where do these numbers come from? They come from patent US12637428B2.
